Test system: Plasmodium falciparum
Experiment: Antiplasmodial activity against drug resistant Plasmodium falciparum K1 by [3H]hypoxanthine incorporation assay
Format: functional, organism-based
observation.type: EC50

Query string: Sample `O=C(NCCN1CCCC1)c1cc(-c2ccc(CN3CCOCC3)cc2)nc2ccc(F)cc12` — what was its EC50?
Result string: 400 pM

Query string: # query: EC50 of entry `O=C(NCCN1CCCC1)c1cc(NCCC2CCOCC2)nc2ccc(Cl)cc12`
Result string: 800 pM

----------
System: Plasmodium berghei
Experiment: Antiplasmodial activity against Plasmodium berghei ANKA infected in NMRI mouse assessed as reduction in parasitemia at 10 mg/kg, po QD for 4 days
Type: functional
Parameters: scale not given: the % may be the effect or the level left
Conditions: time 4 day
Provide the reported Activity of each item.

Query string: I am curious: what Activity value has been reported for `O=C(NCCN1CCCC1)c1cc(NCCC2CCOCC2)nc2ccc(Cl)cc12` ?
Result string: 99.9%

Query string: Can you look up the measured Activity of `O=C(NCCN1CCCC1)c1cc(NCCCCN2CCOCC2)nc2ccc(Cl)cc12` for me?
Result string: 99.7%

Query string: Query: Activity; subject: `O=C(NCCN1CCC1)c1cc(-c2ccc(CN3CCOCC3)cc2)nc2ccc(F)cc12`
Result string: 99.1%

Query string: Please give the measured Activity for this compound: O=C(NCCN1CCCC1)c1cc(-c2ccc(CN3CCOCC3)cc2)nc2ccc(F)cc12 [CABAMIQUINE]
Result string: 99.9%
